The following compounds have recorded pKd on EGFR WT (amino acids 669-1011, Accession Number NP_005219.2) (Homo sapiens).
Sequence (P00533 669-1011): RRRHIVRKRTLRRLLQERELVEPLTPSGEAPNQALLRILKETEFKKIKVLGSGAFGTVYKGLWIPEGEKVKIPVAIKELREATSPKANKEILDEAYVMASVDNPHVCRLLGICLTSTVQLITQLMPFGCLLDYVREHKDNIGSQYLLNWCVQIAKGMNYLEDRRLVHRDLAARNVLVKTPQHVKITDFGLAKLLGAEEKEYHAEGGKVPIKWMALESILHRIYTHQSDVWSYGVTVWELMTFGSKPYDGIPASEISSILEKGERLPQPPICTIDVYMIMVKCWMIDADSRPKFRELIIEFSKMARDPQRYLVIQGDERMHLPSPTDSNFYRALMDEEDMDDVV
pKd: −log10 of the molar value.

Can you look up the measured pKd of CC[C@@H]1C(=O)N(C)c2cnc(Nc3ccc(C(=O)NCCOCCOCCOCCOCCOCCOCCN(C)C/C=C/C(=O)NC4CN(c5nc(Nc6cn(C)nc6OC)c6ncn(C)c6n5)C[C@H]4F)cc3OC)nc2N1C1CCCC1 (some centres unmarked) for me?
5.60 to 6.30

----------
target: EGFR WT (amino acids 669-1011, Accession Number NP_005219.2) (Homo sapiens); construct: purchased Eurofins Discovery; host or cells: bacteria (E. coli, BL21-derived, T7 phage); assay: KdELECT binding assay (Eurofins Discovery), EGFR WT
MEASURE_NAME: Kd

Some solved cases for reference:
# SMILES, TESTED_ON, RESULT
measured = [
    ("C=CC(=O)N[C@@H]1CN(c2nc(Nc3cn(CCOCCOCCOCCOCCNS(=O)(=O)c4ccc(Nc5ncc(Br)c(Nc6cccc(F)c6C(N)=O)n5)cc4)nc3OC)c3ncn(C)c3n2)C[C@H]1F", "EGFR WT (amino acids 669-1011, Accession Number NP_005219.2) (Homo sapiens)", "< 50 nM"),
    ("C=CC(=O)Nc1cc(Nc2nccc(-c3cn(C)c4ccccc34)n2)c(OC)cc1N(C)CCN(C)CCOCCOCCOCCOCCOCCOCCOc1ccc(CNc2cc(N3CCCC[C@H]3CCO)nc3c(CC)cnn23)cn1", "EGFR WT (amino acids 669-1011, Accession Number NP_005219.2) (Homo sapiens)", "500 to 2500 nM"),
    ("C=CC(=O)N[C@@H]1CN(c2nc(Nc3cn(CCOc4ccc(CNc5cc(N6CCCC[C@H]6CCO)nc6c(CC)cnn56)cn4)nc3OC)c3ncn(C)c3n2)C[C@H]1F", "EGFR WT (amino acids 669-1011, Accession Number NP_005219.2) (Homo sapiens)", "50 to 500 nM"),
    ("CC[C@@H]1C(=O)N(C)c2cnc(Nc3ccc(C(=O)NCCOCCOCCN(C)C/C=C/C(=O)Nc4cc(Nc5nccc(-c6cn(C)c7ccccc67)n5)c(OC)cc4N(C)CCN(C)C)cc3OC)nc2N1C1CCCC1", "EGFR WT (amino acids 669-1011, Accession Number NP_005219.2) (Homo sapiens)", "> 2500 nM"),
]

Proceeding to the next compound to report its Kd.
EGFR WT (amino acids 669-1011, Accession Number NP_005219.2) (Homo sapiens) / Kd / C=CC(=O)N[C@@H]1CN(c2nc(Nc3cn(CCCON(C)C(=O)N4N=C(c5cc(F)ccc5F)S[C@@]4(CCCN)c4ccccc4)nc3OC)c3ncn(C)c3n2)C[C@H]1F : value?
< 50 nM
